Measured EC30, listed per entry for reference.
# target_desc: Low-density lipoprotein receptor (Homo sapiens) (UniProt P01130)
# Sequence (P01130 whole entry): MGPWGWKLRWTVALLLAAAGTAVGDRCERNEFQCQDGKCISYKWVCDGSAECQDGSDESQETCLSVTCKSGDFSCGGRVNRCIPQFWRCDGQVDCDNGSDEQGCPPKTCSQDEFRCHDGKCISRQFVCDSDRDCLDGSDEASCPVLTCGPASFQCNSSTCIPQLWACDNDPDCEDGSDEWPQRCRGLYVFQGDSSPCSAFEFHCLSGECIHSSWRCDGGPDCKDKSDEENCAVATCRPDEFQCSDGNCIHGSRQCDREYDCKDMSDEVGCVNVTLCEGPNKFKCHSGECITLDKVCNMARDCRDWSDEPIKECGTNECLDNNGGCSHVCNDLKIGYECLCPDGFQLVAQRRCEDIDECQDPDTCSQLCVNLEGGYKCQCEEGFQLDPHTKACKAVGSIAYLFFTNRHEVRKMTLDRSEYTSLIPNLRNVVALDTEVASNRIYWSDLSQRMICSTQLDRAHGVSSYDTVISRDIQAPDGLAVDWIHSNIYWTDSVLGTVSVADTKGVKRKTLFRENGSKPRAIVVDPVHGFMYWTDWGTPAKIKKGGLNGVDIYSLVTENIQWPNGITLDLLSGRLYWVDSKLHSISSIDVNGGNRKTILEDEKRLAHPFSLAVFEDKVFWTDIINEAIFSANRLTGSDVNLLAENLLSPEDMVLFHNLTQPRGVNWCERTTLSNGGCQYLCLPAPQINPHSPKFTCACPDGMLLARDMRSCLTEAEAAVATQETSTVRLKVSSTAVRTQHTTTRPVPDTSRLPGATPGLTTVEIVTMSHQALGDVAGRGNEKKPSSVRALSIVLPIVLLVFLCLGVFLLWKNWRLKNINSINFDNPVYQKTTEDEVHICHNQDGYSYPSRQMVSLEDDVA
# assay_procedure: Capability of derepressing the transcription of human Low density lipoprotein receptor promoter in the presence of 25-hydroxycholesterol in CHO cells by luciferase assay
# Assay type: cell-based

molecule: CC(C)CCC[C@@H](C)[C@H]1CC[C@H]2[C@@H]3CCC4[C@H](Cc5ccccc5)[C@H](O)CC[C@]4(C)[C@H]3CC[C@]12C (stereo partly drawn)
EC30 (µM): 32
--
molecule: C/C=C\C[C@H]1C2CC[C@H]3[C@@H]4CC[C@H]([C@H](C)CCCC(C)C)[C@@]4(C)CC[C@@H]3[C@@]2(C)CC[C@H]1O (stereo partly drawn)
EC30 (µM): 26
--
molecule: CC(C)CCC[C@@H](C)[C@H]1CC[C@H]2[C@@H]3CCC4[C@H](Cc5ccc(C#N)cc5)[C@H](O)CC[C@]4(C)[C@H]3CC[C@]12C (stereo partly drawn)
EC30 (µM): 9.9

---

Reported MA is given for each of the following molecules.
# target_desc: Low-density lipoprotein receptor (Homo sapiens) (UniProt P01130)
# assay_procedure: Capability of derepressing the transcription of Low density lipoprotein receptor promoter in the presence of 25-hydroxycholesterol in CHO cells measured as maximum activity at 20 ug/mL
# Format: cell-based

molecule: CC(C)CCC[C@@H](C)[C@H]1CC[C@H]2[C@@H]3CCC4[C@H](Cc5ccc(F)cc5)[C@H](O)CC[C@]4(C)[C@H]3CC[C@]12C (some centres not stated)
target_desc: Low-density lipoprotein receptor (Homo sapiens) (UniProt P01130)
MA / %: 80

molecule: C=C(Cl)C[C@H]1C2CC[C@H]3[C@@H]4CC[C@H]([C@H](C)CCCC(C)C)[C@@]4(C)CC[C@@H]3[C@@]2(C)CC[C@H]1O (some centres not stated)
target_desc: Low-density lipoprotein receptor (Homo sapiens) (UniProt P01130)
MA / %: 141

molecule: C/C=C(\C)C[C@H]1C2CC[C@H]3[C@@H]4CC[C@H]([C@H](C)CCCC(C)C)[C@@]4(C)CC[C@@H]3[C@@]2(C)CC[C@H]1O (some centres not stated)
target_desc: Low-density lipoprotein receptor (Homo sapiens) (UniProt P01130)
MA / %: 72

molecule: CC(C)CCC[C@@H](C)[C@H]1CC[C@H]2[C@@H]3CCC4[C@H](Cc5ccccc5)[C@H](O)CC[C@]4(C)[C@H]3CC[C@]12C (some centres not stated)
target_desc: Low-density lipoprotein receptor (Homo sapiens) (UniProt P01130)
MA / %: 44

molecule: C=CC[C@H]1C2=CCC3C(CC[C@@]4(C)C3CC[C@@H]4[C@H](C)CCCC(C)C)[C@@]2(C)CC[C@H]1O (some centres not stated)
target_desc: Low-density lipoprotein receptor (Homo sapiens) (UniProt P01130)
MA / %: 96

molecule: COC(=O)c1ccc(C[C@H]2C3CC[C@H]4[C@@H]5CC[C@H]([C@H](C)CCCC(C)C)[C@@]5(C)CC[C@@H]4[C@@]3(C)CC[C@H]2O)cc1 (some centres not stated)
target_desc: Low-density lipoprotein receptor (Homo sapiens) (UniProt P01130)
MA / %: 48

molecule: CC(C)CCC[C@@H](C)[C@H]1CC[C@H]2[C@@H]3CCC4[C@H](Cc5ccc(C#N)cc5)[C@H](O)CC[C@]4(C)[C@H]3CC[C@]12C (some centres not stated)
target_desc: Low-density lipoprotein receptor (Homo sapiens) (UniProt P01130)
MA / %: 55

molecule: C=CC[C@H]1C2CC[C@H]3[C@@H]4CC[C@H]([C@H](C)CCCC(C)C)[C@@]4(C)CC[C@@H]3[C@@]2(C)CC[C@H]1O (some centres not stated)
target_desc: Low-density lipoprotein receptor (Homo sapiens) (UniProt P01130)
MA / %: 127

molecule: CCCC[C@H]1C2CC[C@H]3[C@@H]4CC[C@H]([C@H](C)CCCC(C)C)[C@@]4(C)CC[C@@H]3[C@@]2(C)CC[C@H]1O (some centres not stated)
target_desc: Low-density lipoprotein receptor (Homo sapiens) (UniProt P01130)
MA / %: 88

molecule: C=CC[C@H]1C2CC[C@H]3[C@@H]4CC[C@H]([C@H](C)CC[C@@H](CC)C(C)C)[C@@]4(C)CC[C@@H]3[C@@]2(C)CC[C@H]1O (some centres not stated)
target_desc: Low-density lipoprotein receptor (Homo sapiens) (UniProt P01130)
MA / %: 95

molecule: CC(C)CCC[C@@H](C)[C@H]1CC[C@H]2[C@@H]3CCC4[C@H](Cc5ccc(C(F)(F)F)cc5)[C@H](O)CC[C@]4(C)[C@H]3CC[C@]12C (some centres not stated)
target_desc: Low-density lipoprotein receptor (Homo sapiens) (UniProt P01130)
MA / %: 58

molecule: CC(C)CCC[C@@H](C)[C@H]1CC[C@H]2[C@@H]3CCC4[C@H](Cc5ccc(Cl)cc5)[C@H](O)CC[C@]4(C)[C@H]3CC[C@]12C (some centres not stated)
target_desc: Low-density lipoprotein receptor (Homo sapiens) (UniProt P01130)
MA / %: 63
